System: rat α1β2γ2L type GABAA receptors expressed in Xenopus laevis oocytes (Rattus norvegicus (Rat), UniProt P62813+P63138, INS375LLRMFSFK)
Measurement notes: Oocyte electrophysiology: potentiation of chloride currents mediated by 2 μM GABA, and direct gating
Format: cell-based
Test context: direct current gated by 10 μM compound in the absence of GABA; N≥4; ± SEM
Property label: (gating) 10 μM, ratio of compound only current/2 μM GABA current
Reply: number alone, nothing else.

# Mol, Test value
data = [
    ("COC[C@]12CC[C@@H](O)C[C@@H]1CC[C@H]1[C@@H]3CC[C@H](C(=O)CO)[C@@]3(C)CC[C@@H]12", 0.09),
    ("COC[C@]12CC[C@@H](O)C[C@@H]1CC[C@H]1[C@@H]3CC[C@H](C#N)[C@@]3(C)CC[C@@H]12", 0.25),
    ("COC[C@]12CCC(=O)C[C@@H]1CC[C@H]1[C@@H]3CC[C@H](OC)[C@@]3(C)CC[C@@H]12", 0.04),
    ("COC[C@]12CC[C@@H](O)C[C@@H]1CC[C@@H]1[C@@H]2CC[C@@]2(C)[C@H]1CC[C@@]21CO1", 0.14),
    ("COC[C@]12CC[C@@H](O)C[C@@H]1CC[C@H]1[C@@H]3CC[C@H](C(C)=O)[C@@]3(C)CC[C@@H]12", 0.23),
]

input: Field request: (gating) 10 μM, ratio of compound only current/2 μM GABA current | item: "COC[C@]12CC[C@@H](O)C[C@@H]1CC[C@@H]1[C@@H]2CC[C@]2(C)C(C#N)=CC[C@@H]12"
output: 0.10

input: Field request: (gating) 10 μM, ratio of compound only current/2 μM GABA current | item: "COC[C@]12CC[C@@H](O)C[C@@H]1CC[C@H]1[C@@H]3CC[C@H]([N+](=O)[O-])[C@@]3(C)CC[C@@H]12"
output: 0.11
